compounds and their reported Ki
biological target: Central α1-receptor; assay: Binding study, rat cerebral cortex, [3H]-prazosin
Write the answer as a number in µM, unit excluded.

As a guide, the following entries are already answered.
CNC1CCc2c(ccc(O)c2O)C1 (racemic) [CHF 1024, (±)-5,6-dihydroxy-2-methylaminotetralin, reference compound]: 16
CN[C@H]1CCc2c(ccc(O)c2O)C1: 15

Form field - read-out: Ki; system: Central α1-receptor; submitted item: CN[C@@H]1CCc2c(ccc(O)c2O)C1 21

* * *

target: Central DA2-receptor (Rattus norvegicus, UniProt P61169); assay: Binding study, rat striatum, [3H]-spiperone; details: rat striatum, [3H]-spiperone; read-out: Ki
Sequence (P61169 whole entry): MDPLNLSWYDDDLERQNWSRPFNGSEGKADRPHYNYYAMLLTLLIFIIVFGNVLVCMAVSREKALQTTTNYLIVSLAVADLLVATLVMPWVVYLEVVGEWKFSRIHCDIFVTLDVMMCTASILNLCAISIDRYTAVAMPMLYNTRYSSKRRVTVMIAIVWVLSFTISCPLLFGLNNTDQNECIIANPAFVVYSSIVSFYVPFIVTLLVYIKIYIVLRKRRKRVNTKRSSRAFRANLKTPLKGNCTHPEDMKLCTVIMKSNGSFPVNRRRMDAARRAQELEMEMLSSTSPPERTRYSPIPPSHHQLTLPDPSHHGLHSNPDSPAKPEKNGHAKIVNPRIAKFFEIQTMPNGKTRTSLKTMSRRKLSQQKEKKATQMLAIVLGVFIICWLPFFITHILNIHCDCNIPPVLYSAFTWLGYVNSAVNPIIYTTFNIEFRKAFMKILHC
test.readout: Ki (nM)
# output: bare number, implied unit nM

Which Ki is listed for CNC1CCc2c(ccc(O)c2O)C1 (racemic) [CHF 1024, (±)-5,6-dihydroxy-2-methylaminotetralin, reference compound] ? 290

* * *

target: β2-receptor (Rattus norvegicus, UniProt P10608); construct: from tissue; host or cells: rat lung; experiment: Binding study, rat lung, [3H]-(−)dihydroalprenolol
Sequence (P10608 whole entry): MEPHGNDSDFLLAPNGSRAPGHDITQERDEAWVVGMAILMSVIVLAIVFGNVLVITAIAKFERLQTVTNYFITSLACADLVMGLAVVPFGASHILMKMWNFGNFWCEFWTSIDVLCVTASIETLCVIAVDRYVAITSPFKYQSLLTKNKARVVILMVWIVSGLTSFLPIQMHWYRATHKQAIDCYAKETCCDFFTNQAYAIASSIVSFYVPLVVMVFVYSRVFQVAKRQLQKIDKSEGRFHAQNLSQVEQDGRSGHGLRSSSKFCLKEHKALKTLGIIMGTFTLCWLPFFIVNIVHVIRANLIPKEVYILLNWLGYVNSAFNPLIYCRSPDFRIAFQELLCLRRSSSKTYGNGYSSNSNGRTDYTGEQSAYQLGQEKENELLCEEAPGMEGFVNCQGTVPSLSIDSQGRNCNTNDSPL
test.readout: Ki
Don't forget the unit after the value.

Need Ki, item CNC1CCc2c(ccc(O)c2O)C1 (racemic) [CHF 1024, (±)-5,6-dihydroxy-2-methylaminotetralin, reference compound] 1500 nM

* * *

biological target: Central DA1 receptor (Rattus norvegicus, UniProt P18901); construct: from tissue; host or cells: rat striatum; assay: Binding study, rat striatum, [3H]-SCH23390
Sequence (P18901 whole entry): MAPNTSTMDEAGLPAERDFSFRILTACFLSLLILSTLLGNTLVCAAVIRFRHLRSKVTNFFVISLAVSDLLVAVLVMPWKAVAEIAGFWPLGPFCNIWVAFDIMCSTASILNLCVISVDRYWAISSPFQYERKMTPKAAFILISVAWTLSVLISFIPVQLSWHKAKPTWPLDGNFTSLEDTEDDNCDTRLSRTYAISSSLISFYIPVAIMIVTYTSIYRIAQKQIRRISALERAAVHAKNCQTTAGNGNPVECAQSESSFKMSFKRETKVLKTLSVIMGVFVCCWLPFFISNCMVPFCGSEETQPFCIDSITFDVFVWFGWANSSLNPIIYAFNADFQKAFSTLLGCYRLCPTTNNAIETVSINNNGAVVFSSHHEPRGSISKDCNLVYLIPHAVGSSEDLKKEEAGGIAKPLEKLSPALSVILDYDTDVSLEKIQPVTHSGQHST
test.readout: Ki (µM)
Entry rule: numbers only, all in µM.

Please look up its Ki: CNC1CCc2c(ccc(O)c2O)C1 (racemic) [CHF 1024, (±)-5,6-dihydroxy-2-methylaminotetralin, reference compound] 13

* * *

target: Central DA1 receptor (Rattus norvegicus, UniProt P18901); construct: from tissue; host or cells: rat striatum; experiment: Binding study, rat striatum, [3H]-SCH23390; settings: rat striatum, [3H]-SCH23390; read-out: Ki
Recorded pKi, one value per entry.
// returns pKi (minus log10 of molar concentration), number only

CN[C@@H]1CCc2c(ccc(O)c2O)C1: 5.13

Moving on to the next compound.
Returns the measured pKi for the input compound. Input: CN[C@H]1CCc2c(ccc(O)c2O)C1 5.17

* * *

biological target: β2-receptors (Cavia porcellus); construct: was also tested in isolated tissue preparations; from tissue; host or cells: guinea-pig tracheal strips; assay: Guinea-pig tracheal strips contracted with carbachol, relaxing effect
Sequence (Q8K4Z4 whole entry): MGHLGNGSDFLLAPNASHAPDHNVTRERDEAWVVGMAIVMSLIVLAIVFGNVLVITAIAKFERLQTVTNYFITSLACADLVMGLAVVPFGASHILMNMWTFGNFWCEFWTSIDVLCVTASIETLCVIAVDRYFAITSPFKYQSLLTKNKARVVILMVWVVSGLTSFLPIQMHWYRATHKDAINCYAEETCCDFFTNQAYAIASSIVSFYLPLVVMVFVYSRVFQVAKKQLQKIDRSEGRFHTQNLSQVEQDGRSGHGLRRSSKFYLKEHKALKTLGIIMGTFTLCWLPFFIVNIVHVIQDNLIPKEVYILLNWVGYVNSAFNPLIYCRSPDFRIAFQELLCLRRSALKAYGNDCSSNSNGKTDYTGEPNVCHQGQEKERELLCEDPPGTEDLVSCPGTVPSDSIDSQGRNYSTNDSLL
test.readout: pEC50
Interpret pEC50 as the negative base-10 log of the concentration measured in mol/L.

So what's the measured pEC50 for this one? CNC1CCc2c(ccc(O)c2O)C1 (racemic) [CHF 1024, (±)-5,6-dihydroxy-2-methylaminotetralin, reference compound] 6.60

* * *

The compounds listed here are annotated with their Ki.
target: UniProt P61169; assay: Binding study, rat striatum, [3H]-spiperone; settings: rat striatum, [3H]-spiperone

CN[C@H]1CCc2c(ccc(O)c2O)C1 [CHF 1870]: 0.12 µM

// moving on: another record for Ki
Query for UniProt P61169: what Ki does the record show for CN[C@@H]1CCc2c(ccc(O)c2O)C1 [CHF 1869] ? 2.4 µM

* * *

molecular target: β2-receptor (Rattus norvegicus); construct: from tissue; host or cells: rat lung; test: Binding study, rat lung, [3H]-(−)dihydroalprenolol; details: rat lung, [3H]-(−)dihydroalprenolol; read-out: Ki
test.readout: pKi
When answering, recall that pKi equals minus log10 of the concentration in mol/L, and write that number alone.

CN[C@@H]1CCc2c(ccc(O)c2O)C1 [CHF 1869]: 5.85

Switching to the query record.
Could you share which pKi value was measured for CN[C@H]1CCc2c(ccc(O)c2O)C1 [CHF 1870] ? 6.00

Entry source: patent US20040102652A1
